Kd values by entry
Target: HLA-A*24:02
Experiment: IEDB peptide-MHC binding, purified MHC/competitive/radioactivity; filed as Kd, often an IC50 or EC50 that approximates it; bounds were set here for any values at or beyond the usual limits of such assays
Settings: source organism: SARS coronavirus Tor2

sequence-code	Kd
FDEISMATNY	≥ 70.3 µM
KSAQCFKMFY	4.7 µM

Problem: # lookup: HLA-A*24:02 Kd, key = `KSFEIDKGIY`
Solution: ≥ 70.3 µM

Problem: # lookup: HLA-A*24:02 Kd, key = `LLEKCDLQNY`
Solution: ≥ 70.3 µM

Problem: # lookup: HLA-A*24:02 Kd, key = `HFAIGLALYY`
Solution: ≥ 70.3 µM

Problem: # lookup: HLA-A*24:02 Kd, key = `FYFTNDVSFL`
Solution: 0.0475 µM

Problem: # lookup: HLA-A*24:02 Kd, key = `MYIFFASFYY`
Solution: 6.65 µM
